Data origin, for the record: patent US20040018558A1

Measured ELISA of individual entries
Target: recombinant reconstituted β2 adrenergic receptor
Test: ELISA of clones panned from the Gs library, reconstituted β2 adrenergic receptor
Where no end group is shown, it is not given here.

>  <BINDER>
PCIQLGQYESF (peptide, not shown: small tags and cut ends, not fully specified) [BAR40 PCIQLGQYESF]

>  <ELISA>
0.028

$$$$
>  <BINDER>
NCMKFRSCGLF (peptide, not shown: small tags and cut ends, not fully specified; cysteine pairing not given here) [BAR20 NCMKFRSCGLF]

>  <ELISA>
0.079

$$$$
>  <BINDER>
QGMQLRRFKLR (peptide, not shown: small tags and cut ends, not fully specified) [AG1 QGMQLRRFKLR]

>  <ELISA>
0.435

$$$$
>  <BINDER>
QRLRLRKYRLF (peptide, not shown: small tags and cut ends, not fully specified) [BAR31 QRLRLRKYRLF]

>  <ELISA>
0.026

$$$$
>  <BINDER>
QRMPLRQYELL (peptide, not shown: small tags and cut ends, not fully specified) [AG9 QRMPLRQYELL]

>  <ELISA>
0.19

$$$$
>  <BINDER>
PRPRLLRFKIP (peptide, not shown: small tags and cut ends, also: fused to carrier via linker, not given here) [AG19 PRPRLLRFKIP]

>  <ELISA>
0.361

$$$$
